System: lung fibroblasts MRC-5
procedure-details: MTT cytotoxicity assay, normal MRC-5
Format: cell-based
assay-setup: Homo sapiens, MRC5, 72 h, read-out: IC50 MRC-5
With a cut-off of 100 µM, any IC50 strictly below it is called YES; any IC50 meeting it or above is called NO.

• COC(=O)C1=C(C)N(C)C(=S)NC1c1ccc(Cl)cc1 (centres unmarked) = YES
• COC(=O)C1=C(C)N(C)C(=S)NC1c1ccc(O)c(OC)c1 (centres unmarked) = NO
• COC(=O)C1=C(C)N(C)C(=S)NC1c1ccc(C(=O)O)cc1 (centres unmarked) = NO
• COC(=O)C1=C(C)N(C)C(=S)NC1c1ccccc1 (centres unmarked) = YES
• COC(=O)C1=C(C)N(C)C(=S)NC1c1ccc([N+](=O)[O-])cc1 (centres unmarked) = YES
